# Test system: Mus musculus
# Method notes: Parenteral antimalarial effect against Plasmodium berghei in mice (Mus musculus) at a dose of 640 subcutaneously mg/kg
# Assay type: functional
Property measured: log10 MST (log10 of the value in days)
The figures below represent log10 of MST, where MST is stated in days.

Noted for CC1(C)N=C(N)N=C(N)N1c1ccc(Cl)cc1.Cl [CHLORCYCLOGUANIL HYDROCHLORIDE] : its log10 MST reads 0.70

Noted for `CN(Cc1ccccc1)c1cnc2nc(N)nc(N)c2n1` : its log10 MST reads -0.52

Noted for `Nc1nc(N)c2nc(N3CCC(c4ccccc4)CC3)cnc2n1` : its log10 MST reads -1.00

Noted for `COc1ccc(CN(C)c2cnc3nc(N)nc(N)c3n2)c2ccccc12` : its log10 MST reads 0.70

Noted for `Nc1nc(N)c2nc(N3CCc4ccccc4C3)cnc2n1` : its log10 MST reads -0.30

Noted for `CN(CCc1ccccc1)c1cnc2nc(N)nc(N)c2n1` : its log10 MST reads 0.59
